- systemUnderTest: human ether-à-go-go-related gene (hERG) potassium channel (human, UniProt Q12809);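 also: peak tail current of the secondary pulse compared with the same well before compound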
- Sequence (Q12809 whole entry, looked up): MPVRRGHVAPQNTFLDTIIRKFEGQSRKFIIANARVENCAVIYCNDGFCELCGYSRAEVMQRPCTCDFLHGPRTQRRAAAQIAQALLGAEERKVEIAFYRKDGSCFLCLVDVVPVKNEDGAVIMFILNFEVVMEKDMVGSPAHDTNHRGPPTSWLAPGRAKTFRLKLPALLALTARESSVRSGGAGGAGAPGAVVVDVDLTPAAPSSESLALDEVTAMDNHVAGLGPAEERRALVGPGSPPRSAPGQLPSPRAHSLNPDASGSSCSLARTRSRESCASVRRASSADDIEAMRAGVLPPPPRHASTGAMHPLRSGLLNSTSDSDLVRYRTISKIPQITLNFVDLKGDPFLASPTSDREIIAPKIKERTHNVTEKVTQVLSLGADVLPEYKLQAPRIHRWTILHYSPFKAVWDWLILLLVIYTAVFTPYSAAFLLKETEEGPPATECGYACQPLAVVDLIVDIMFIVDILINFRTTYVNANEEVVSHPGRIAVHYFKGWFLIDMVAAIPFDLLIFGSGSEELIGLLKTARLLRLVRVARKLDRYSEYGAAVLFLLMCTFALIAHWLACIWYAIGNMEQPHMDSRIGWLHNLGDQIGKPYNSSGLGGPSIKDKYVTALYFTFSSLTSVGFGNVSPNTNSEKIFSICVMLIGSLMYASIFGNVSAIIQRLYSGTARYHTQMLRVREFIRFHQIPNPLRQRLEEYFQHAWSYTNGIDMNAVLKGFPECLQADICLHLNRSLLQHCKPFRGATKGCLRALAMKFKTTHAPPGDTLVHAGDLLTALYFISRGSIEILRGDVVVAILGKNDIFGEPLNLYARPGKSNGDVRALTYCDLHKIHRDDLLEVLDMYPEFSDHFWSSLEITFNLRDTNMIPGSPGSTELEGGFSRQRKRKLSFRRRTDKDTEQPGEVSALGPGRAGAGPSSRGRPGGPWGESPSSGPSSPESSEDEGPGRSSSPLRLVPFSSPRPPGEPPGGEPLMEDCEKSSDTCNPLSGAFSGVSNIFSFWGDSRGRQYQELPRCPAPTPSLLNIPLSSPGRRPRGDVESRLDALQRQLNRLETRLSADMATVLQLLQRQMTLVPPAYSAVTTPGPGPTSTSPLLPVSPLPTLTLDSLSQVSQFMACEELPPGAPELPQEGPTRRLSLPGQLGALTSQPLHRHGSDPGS
- procedureSummary: primary screen, population patch clamp on CHO cells stably expressing hERG; higher = less effect of the substance
In all, about 310,000 compounds went through this assay and about 14,000 (4.5%) showed an effect of 50% or more. The effect is printed as a negative number. This excerpt belongs to a sample that is enriched for strong results.
attributeMeasured: hERG current change (%, negative = inhibition) at 10uM (%)
// return numeric value only (unit: %, not printed)

Notebook: Cc1oc(-c2ccc(Cl)cc2)nc1CN1CCCC(C(=O)NCc2ccco2)C1 (stereo not drawn) , hERG current change (%, negative = inhibition) at 10uM read as -71.9

Short answer for CCOc1ccc(-n2ccnc2SCC(=O)N2CCCc3ccccc32)cc1 : hERG current change (%, negative = inhibition) at 10uM was -13.7

# hERG current change (%, negative = inhibition) at 10uM of CCN1CCN(CCNC(=O)C2CCCN(Cc3nc(-c4cccc(Cl)c4)oc3C)C2)CC1 (stereo not drawn) = -6.73

hERG current change (%, negative = inhibition) at 10uM recorded for this compound, CCOC(=O)c1ccccc1NC(=O)c1cn(-c2ccc(C)c(C)c2)c(=O)c2ccccc12 , is -2.12

Looking up O=C(NCc1ccco1)C1CCCN(S(=O)(=O)c2ccc(Cl)cc2)C1 (stereo not drawn) , I see its hERG current change (%, negative = inhibition) at 10uM listed as -13.2

For record Cc1oc(-c2ccc(Cl)cc2)nc1CN1CCCC(C(=O)NCCCN2CCCC2=O)C1 (stereo not drawn) the listed hERG current change (%, negative = inhibition) at 10uM is -30.8

Reported hERG current change (%, negative = inhibition) at 10uM for CCCS(=O)(=O)N1CCCC(C(=O)NC(C)c2ccc3c(c2)OCCO3)C1 (stereo not drawn) was 9.55

Short answer for Cc1oc(-c2cccc(Cl)c2)nc1CN1CCCC(C(=O)NCCCN2CCOCC2)C1 (stereo not drawn) : hERG current change (%, negative = inhibition) at 10uM was -28.1

The compound listed as COc1ccc2cc(C(=O)C3CCCN(C(=O)c4cccnc4)C3)ccc2c1 (stereo not drawn) has a reported hERG current change (%, negative = inhibition) at 10uM of -25.1

###

Field: hERG current change (%, negative = inhibition) at 10uM. Provide a value for each of the compounds that follow.
- systemUnderTest: human ether-à-go-go-related gene (hERG) potassium channel (human, UniProt Q12809);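 also: peak tail current of the secondary pulse compared with the same well before compound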
- procedureSummary: primary screen, population patch clamp on CHO cells stably expressing hERG; higher = less effect of the substance
Screen size: about 310,000 compounds; about 14,000 (4.5%) showed an effect of 50% or more. Effects have a minus sign here. Many of the other results were omitted from the sample, so strong results are more common in it than they were.
Report the value in % with no unit label.

Note to self: hERG current change (%, negative = inhibition) at 10uM of COc1ccc(CC(NC(C)=O)C(=O)NC2CCN(C(=O)Nc3ccccc3Cl)CC2)cc1OC (stereo not shown) with human ether-à-go-go-related gene (hERG) potassium channel (human, UniProt Q12809) was 12.7

Item CCCCCCn1c(=O)c(C(=O)Nc2nnc(C)s2)c(O)c2ccccc21 was tested on human ether-à-go-go-related gene (hERG) potassium channel (human, UniProt Q12809); the reported hERG current change (%, negative = inhibition) at 10uM is -1.74

Here CCS(=O)(=O)N1CCC(C(=O)Oc2ccccc2OC)CC1 was tested on human ether-à-go-go-related gene (hERG) potassium channel (human, UniProt Q12809), and its hERG current change (%, negative = inhibition) at 10uM came to 18.5

Case CC1Cc2ccccc2N1C(=O)CSc1nnc(N)s1 (stereo not shown) , human ether-à-go-go-related gene (hERG) potassium channel (human, UniProt Q12809), hERG current change (%, negative = inhibition) at 10uM recorded as 13

With human ether-à-go-go-related gene (hERG) potassium channel (human, UniProt Q12809) as the test system, N#Cc1ccccc1NC(=O)CSc1ccc([N+](=O)[O-])cn1 showed hERG current change (%, negative = inhibition) at 10uM of 13.1

The compound CC(CNC(=O)Cn1ccc2cc(S(=O)(=O)N3CCCC3)ccc21)c1ccccc1 (stereo not shown) on human ether-à-go-go-related gene (hERG) potassium channel (human, UniProt Q12809): hERG current change (%, negative = inhibition) at 10uM was -9.17

Readout hERG current change (%, negative = inhibition) at 10uM for O=C(/C=C/c1ccco1)NC1CCCC1 , test system human ether-à-go-go-related gene (hERG) potassium channel (human, UniProt Q12809), was 17.4

Summary: c1ccc2c(c1)SCc1nnc(-c3ccncc3)n1-2 , human ether-à-go-go-related gene (hERG) potassium channel (human, UniProt Q12809), hERG current change (%, negative = inhibition) at 10uM = -2.6

Here O=[N+]([O-])c1ccc2c(OCc3nnc(-c4ccccc4Br)o3)ncnc2c1 was tested on human ether-à-go-go-related gene (hERG) potassium channel (human, UniProt Q12809), and its hERG current change (%, negative = inhibition) at 10uM came to -74.1

hERG current change (%, negative = inhibition) at 10uM of O=C(CS(=O)(=O)c1c[nH]c2ccccc12)Nc1ccc(F)cc1 , assay on human ether-à-go-go-related gene (hERG) potassium channel (human, UniProt Q12809), is -21.8

Form: item Brc1cccc(-c2nnc(SCc3ccon3)n2-c2ccccc2)c1 ; test system human ether-à-go-go-related gene (hERG) potassium channel (human, UniProt Q12809); hERG current change (%, negative = inhibition) at 10uM: -48.9

Measured hERG current change (%, negative = inhibition) at 10uM for this entry COC(=O)c1cc2c(ccn2-c2ccc(F)cc2)n1Cc1cccc(OC)c1 on human ether-à-go-go-related gene (hERG) potassium channel (human, UniProt Q12809): 0.0373

Lab entry: human ether-à-go-go-related gene (hERG) potassium channel (human, UniProt Q12809) assay, compound O[C@H]1c2ccccc2[C@H](Cc2cncs2)[C@@H]1Br , hERG current change (%, negative = inhibition) at 10uM = 0.746

Given the compound O=C(O)C1CC(c2ccccc2)=Nc2ccccc2S1 (stereo not shown) and test system human ether-à-go-go-related gene (hERG) potassium channel (human, UniProt Q12809), the measured hERG current change (%, negative = inhibition) at 10uM is 1.43

The value of hERG current change (%, negative = inhibition) at 10uM recorded for CN1/C(=C/C2CC(=O)NC2=O)C(C)(C)c2ccccc21 (stereo not shown) when tested on human ether-à-go-go-related gene (hERG) potassium channel (human, UniProt Q12809) reads 3.26

# hERG current change (%, negative = inhibition) at 10uM measured on human ether-à-go-go-related gene (hERG) potassium channel (human, UniProt Q12809) for item Cc1nnc(SCC(=O)N2c3ccccc3CC2C)s1 (stereo not shown) = -54.2

Given the compound CC(/C=N/NC(=O)c1ccc(Cn2cc([N+](=O)[O-])cn2)o1)=C\c1ccccc1 and test system human ether-à-go-go-related gene (hERG) potassium channel (human, UniProt Q12809), the measured hERG current change (%, negative = inhibition) at 10uM is -5.3

Query O=C(/C=C\Nc1cccc(F)c1)c1cccs1 on human ether-à-go-go-related gene (hERG) potassium channel (human, UniProt Q12809); hERG current change (%, negative = inhibition) at 10uM returned: 11.7

Reported human ether-à-go-go-related gene (hERG) potassium channel (human, UniProt Q12809) hERG current change (%, negative = inhibition) at 10uM for item Cc1ccccc1OCC(=O)NCC1CCCO1 (stereo not shown) was 13.3

Form: item CCOC(=O)c1c(N)c2cc([N+](=O)[O-])cnc2n1C ; test system human ether-à-go-go-related gene (hERG) potassium channel (human, UniProt Q12809); hERG current change (%, negative = inhibition) at 10uM: 17.3

Lab entry: human ether-à-go-go-related gene (hERG) potassium channel (human, UniProt Q12809) assay, compound COCC(C)NCc1ccc(C)cc1C (stereo not shown) , hERG current change (%, negative = inhibition) at 10uM = -14.3

GET /values?item= O=C(NCCC(=O)N1CCCCC1)c1ccccc1Cl &system= human ether-à-go-go-related gene (hERG) potassium channel (human, UniProt Q12809) returns hERG current change (%, negative = inhibition) at 10uM: -14.2

###

- systemUnderTest: human ether-à-go-go-related gene (hERG) potassium channel (human);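 also: peak tail current of the secondary pulse compared with the same well before compound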
- procedureSummary: primary screen, population patch clamp on CHO cells stably expressing hERG; higher = less effect of the substance
Among all 310,000 compounds or so, about 14,000 (4.5%) showed an effect of 50% or more. Effects have a minus sign here. The sample as a whole holds a higher share of strong results than the screen did.
attributeMeasured: hERG current change (%, negative = inhibition) at 10uM (%)
Lab book: enter the figure in %, no units written.

Memo: O=c1[nH]c(=O)n(C2CCCCC2)c(O)c1/C=N/N1CCCCC1c1cccnc1 (stereo not drawn) , reported hERG current change (%, negative = inhibition) at 10uM: -13.6

molecule CC(C)(C)c1ccc(C(=O)NNC(=S)NCC2CCCO2)cc1 (stereo not drawn) , hERG current change (%, negative = inhibition) at 10uM observed: 14.4

Lab note: CC1CCN(c2oc(-c3ccco3)nc2S(=O)(=O)c2ccccc2)CC1 gave hERG current change (%, negative = inhibition) at 10uM of -6.14

hERG current change (%, negative = inhibition) at 10uM recorded for this molecule, CC(OC(=O)c1ccc(Cl)c(S(=O)(=O)N2CCOCC2)c1)C(=O)NC1CCCCC1C (stereo not drawn) , is -35.9

hERG current change (%, negative = inhibition) at 10uM for Cc1ccc(-c2cn(S(=O)(=O)c3cccc([N+](=O)[O-])c3)nc2N)cc1 is 15.3

Quick note, hERG current change (%, negative = inhibition) at 10uM for CCNC(=O)NS(=O)(=O)c1cnccc1Nc1cccc(Cl)c1 landed at 25.1

molecule CCN1CCN(c2ccc(S(=O)(=O)N3CCOCC3)cc2NC(=O)c2ccc(C)c(C)c2)CC1 , hERG current change (%, negative = inhibition) at 10uM observed: -40

hERG current change (%, negative = inhibition) at 10uM reading for O=C(c1ccc(F)cc1)N1CCN2C(=O)c3ccccc3C12c1ccccc1 (stereo not drawn) : -31.5

Measured hERG current change (%, negative = inhibition) at 10uM, CC(=O)N(C)c1ccc(N=Cc2c(O)ccc3ccccc23)cc1 : -20.9

Short answer for O=C(COc1ccc(-n2cnnn2)cc1)Nc1cccc(Cl)c1Cl : hERG current change (%, negative = inhibition) at 10uM was 16.8

Notebook: O=C(/C=C/c1ccc(N2CCOCC2)cc1)c1ccccc1 , hERG current change (%, negative = inhibition) at 10uM read as -1.16

// field: hERG current change (%, negative = inhibition) at 10uM; key: COc1ccc(C2C3CCCCC3(O)CCN2C(=O)c2cccs2)cc1 (stereo not drawn) ; value = 5.52

hERG current change (%, negative = inhibition) at 10uM measured on COC(=O)Cn1c(=O)cnc2ccccc21 = -2.96

The measured hERG current change (%, negative = inhibition) at 10uM associated with O=C1CN(CC(=O)Nc2ccc(SC(F)F)cc2)CCN1 reads -32.6

For CC(C)n1c(-c2ccco2)csc1=Nc1cccnc1 the molecule record lists hERG current change (%, negative = inhibition) at 10uM as -10.3

Notebook: CCOc1cc2c(cc1OCC)C(c1ccc(OC)cc1)N(c1ccccc1)C(=O)C2 (stereo not drawn) , hERG current change (%, negative = inhibition) at 10uM read as -57.5

Lookup result for Cc1nn(C)c(C(=O)N/N=C/c2ccccn2)c1[N+](=O)[O-] ; measured hERG current change (%, negative = inhibition) at 10uM: 21.3

Field hERG current change (%, negative = inhibition) at 10uM (entry N#CCCS(=O)(=O)c1nnnn1-c1ccccc1 ) reads -18.7

Consider COc1ccc(N2CCN(CC(=O)Nc3ccc(C)cc3)CC2)cc1 . Its measured hERG current change (%, negative = inhibition) at 10uM is -18.7

Given item Cn1c(=O)c(=O)n(C)c2cc(S(=O)(=O)CCC(=O)Nc3ccc(F)cc3)ccc21 , the value recorded as its hERG current change (%, negative = inhibition) at 10uM is -2.6

Recorded result, CCN1CCN(c2ccc(S(=O)(=O)N3CCOCC3)cc2NC(=O)c2ccc(F)cc2Cl)CC1 , hERG current change (%, negative = inhibition) at 10uM: -35.7
